System: SN12C
Experiment: NCI tumour cell line growth inhibition, 48 h
The source made the active and inactive calls. Cut-off read from the data, not from the text of the source: active = GI50 up to about 1.1 µM and inactive = higher.
Each entry below carries its recorded GI50.

compound=CCOC(=O)N/N=C(/N)c1cccc([N+](=O)[O-])c1 reported_value="> 100 µM (inactive)"
compound="O=C1OC(c2ccccc2)=N/C1=C/NC(CS)C(=O)O (stereo not drawn)" reported_value="> 100 µM (inactive)"

Asked: // lookup GI50 for CN(C)CC1CCC(CN(C)C)C1=NO (stereo not drawn)
Given back: > 100 µM (inactive)

* * *

Test system: Malme-3M
Experiment: NCI tumour cell line growth inhibition, 48 h
Activity calls are given as the source filed them. Cut-off read from the data, not from the text of the source: active = GI50 up to about 1.1 µM and inactive = higher.
# GI50 values compiled below

Field: example entries. Status: answers known.
compound="O=C1OC(c2ccccc2)=N/C1=C/NC(CS)C(=O)O (stereo not drawn)" tested_on=Malme-3M measurement_kind=GI50 reported_value="> 100 µM (inactive)"
compound=COC(=O)C1(C(=O)OC)CC2=C(S(=O)(=O)c3ccccc3)C[C@H](C#N)[C@H]2C1 tested_on=Malme-3M measurement_kind=GI50 reported_value="> 100 µM (inactive)"

API: the following record is the query input.
Asked: GI50 for O=C(c1ccccc1)C1C(c2ccccc2[N+](=O)[O-])N1C1CCCCC1 (stereo not drawn) ?
Given back: 12.4 µM (inactive)

* * *

Reported GI50 values for a set of molecules
Tested on: RXF 393
Assay: NCI tumour cell line growth inhibition, 48 h
Activity calls are given as the source filed them. Cut-off read from the data, not from the text of the source: active = GI50 up to about 1.1 µM and inactive = higher.

Asked: Recorded GI50 of O=c1n(CCO)nc2n1CCCN2 , please.
Given back: > 100 µM (inactive)

Asked: Would you kindly share the measured GI50 for C=C1CCCC2[C@](C)(CC3=C(O)C(=O)C=C(OC)C3=O)[C@@H](C)CC[C@]12C (stereo partly specified) ?
Given back: 2.73 µM (inactive)

Asked: # query: GI50 of entry N#CCCN(CCC#N)c1ccc(/C=C2\N=C(c3cc([N+](=O)[O-])ccc3Cl)N(NC(=O)CC(=O)Nc3ccccc3Cl)C2=O)cc1
Given back: > 100 µM (inactive)

Asked: Need GI50 of C/C(=N\NC(N)=S)c1cc(C)c(C)cc1C , thanks.
Given back: 29 µM (inactive)

Asked: Record request: GI50 value, item COc1ccc(/C(=N\Nc2ccccn2)c2ccccn2)cc1
Given back: 2.59 µM (inactive)

Asked: Item under review: Nc1ccc2ncc(NCc3ccc(F)cc3)nc2c1 . Reported GI50?
Given back: 34.4 µM (inactive)

Asked: I am curious: what GI50 value has been reported for O=c1[nH]cnc2c1ncn2[C@@H]1C[C@H]1CO ?
Given back: > 100 µM (inactive)

* * *

System: SK-MEL-2
Test: NCI tumour cell line growth inhibition, 48 h
The source made the active and inactive calls. No stated cut-off is given here; in the data, active = GI50 up to about 1.1 µM and inactive = higher.
measurement_kind: GI50

Some molecules with known GI50 results, for comparison:
molecule=N/C(=N\Nc1ccc(Cl)cc1)c1cnccn1 reported_value="58.1 µM (inactive)"
molecule=CCCCNc1nc2ccccc2c2c1ncn2CC(C)C reported_value="> 100 µM (inactive)"
molecule="O=C1OC(c2ccccc2)=N/C1=C/NC(CS)C(=O)O (stereo not given)" reported_value="> 100 µM (inactive)"
molecule=Nc1ncnc2c1ncn2[C@@H]1C[C@@H]1CO reported_value="> 100 µM (inactive)"
molecule="COC[C@H]1OC(=O)c2coc3c2[C@@]1(C)C1=C(C3=O)[C@@H]2CCC(=O)[C@@]2(C)C[C@H]1OC(C)=O [WORTMANNIN]" reported_value="2.21 µM (inactive)"

Asked: Sample O=C1C[C@H]2CCCN2[C@@H](c2ccccc2)C1 — what was its GI50?
Given back: > 100 µM (inactive)

Asked: Recorded GI50 of Cc1n[n+]([O-])c(C)cc1[N+](=O)[O-] , please.
Given back: 20.1 µM (inactive)

Asked: Field request: GI50 | item: CC1=CC2CC(C)=C(CC[C@]3(C)CC[C@H]([C@@H](C)C(=O)O)OO3)C(C)(C)C2CC1 (stereo not given in full)
Given back: 1.6 µM (inactive)

* * *

Each entry below carries its reported GI50.
Tested on: COLO 205
Assay: NCI tumour cell line growth inhibition, 48 h
Calls of active or inactive are those of the source. Cut-off read from the data, not from the text of the source: active = GI50 up to about 1.1 µM and inactive = higher.

// solved cases for GI50 follow
compound="CC1(C)CC2C(=O)c3ccccc3NC2c2ccccc21 (configuration not stated)" reported_value="3.44 µM (inactive)"
compound=c1ccc2c(c1)[nH]c1c2nc2ccccn21 reported_value="> 100 µM (inactive)"
compound=Clc1cccc2[nH]ncc12 reported_value="74.6 µM (inactive)"
compound=N#CCCN(CCC#N)c1ccc(/C=C2\N=C(c3cc([N+](=O)[O-])ccc3Cl)N(NC(=O)CC(=O)Nc3ccccc3Cl)C2=O)cc1 reported_value="> 100 µM (inactive)"
compound="CC(C)(C)c1cc(C2c3cc4c(cc3OC(O)(CO)C2C(=O)O)OCO4)cc(C(C)(C)C)c1O.CC(C)(C)c1cc(C2c3cc4c(cc3OC3(O)COC(=O)C23)OCO4)cc(C(C)(C)C)c1O (configuration not stated)" reported_value="20.4 µM (inactive)"
compound=O=c1[nH]cnc2c1ncn2[C@@H]1C[C@H]1CO reported_value="> 100 µM (inactive)"

Consider the additional compound presented here.
Asked: // fetch COLO 205 GI50 for Cc1ccc(S(=O)(=O)N2CC2CCCCC=O)cc1 (configuration not stated)
Given back: > 100 µM (inactive)

* * *

Tested on: U-251
Assay: NCI tumour cell line growth inhibition, 48 h
Active and inactive are the calls of the source. No stated cut-off is given here; in the data, active = GI50 up to about 1.1 µM and inactive = higher.
Listed compounds paired with reported GI50

Example entries begin here.
compound=CCCCCNC(=O)CCCCCCCCCCCNC(=O)CCCCCCCCCCN1C=CC(=CC=C2C=CC(=O)C=C2)C=C1 tested_on=U-251 measurement_kind=GI50 reported_value="32.1 µM (inactive)"
compound=CC(=O)C(=NNc1ccc(-n2c(C)nc3ccc(Br)cc3c2=O)cc1)C(C)=O tested_on=U-251 measurement_kind=GI50 reported_value="58.2 µM (inactive)"
compound="CCOc1cc(NC(C)=O)ccc1C(=O)NN1C(=O)C(Oc2ccccc2)C1c1ccc(O)c(OC)c1 (stereo not given)" tested_on=U-251 measurement_kind=GI50 reported_value="48.9 µM (inactive)"
compound="NC(=O)C(c1ccccc1)N1CCOCC1 (stereo not given)" tested_on=U-251 measurement_kind=GI50 reported_value="> 100 µM (inactive)"

The record that follows has no GI50 shown yet.
Asked: // query GI50 value for entry C#C[C@]1(O)CC[C@H]2[C@@H]3CCc4cc(O)ccc4[C@H]3CC[C@@]21C
Given back: 7.8 µM (inactive)

* * *

Tested on: SK-OV-3
Experiment: NCI tumour cell line growth inhibition, 48 h
The source made the active and inactive calls. Cut-off read from the data, not from the text of the source: active = GI50 up to about 1.1 µM and inactive = higher.
Some molecules, each annotated with its measured GI50.

molecule=CCOP(=O)(CN1CCNCCN(CP(=O)(OCC)OCC)CC1)OCC tested_on=SK-OV-3 reported_value="> 100 µM (inactive)"
molecule=Cc1cc(N(CCC#N)CCC#N)ccc1/C=C(\NC(=O)/C=C/c1ccccc1)C(=O)NN tested_on=SK-OV-3 reported_value="31 µM (inactive)"
molecule="CCN(CC)CC1CCCCN1CC(=O)N1CC(C)C(=O)Nc2ccccc21 (centres undefined)" tested_on=SK-OV-3 reported_value="> 100 µM (inactive)"

Attention now turns to another entry.
Asked: Item under review: O=CC1=CCCC2(C1)OCCO2 . Reported GI50?
Given back: > 100 µM (inactive)

* * *

Test system: OVCAR-4
Assay: NCI tumour cell line growth inhibition, 48 h
The source made the active and inactive calls. No stated cut-off is given here; in the data, active = GI50 up to about 1.1 µM and inactive = higher.
measurement_kind: GI50

Examples from the recorded data:
compound=O=C(Cc1nc2ccccc2s1)C(=O)Nc1cccc(Cl)c1 tested_on=OVCAR-4 reported_value="> 100 µM (inactive)"
compound="CC1CCCP(=O)(c2ccccc2)CCC1 (stereo unspecified)" tested_on=OVCAR-4 reported_value="> 100 µM (inactive)"
compound=COc1ccc(C(=O)N(Cc2cccnc2)C(=S)N(Cc2cccnc2)C(=O)c2ccc(OC)cc2)cc1 tested_on=OVCAR-4 reported_value="37.4 µM (inactive)"

Asked: I would be grateful if you could share the reported GI50 for COc1cc2ccc3ccncc3c2cc1OC .
Given back: > 10 µM (inactive)

Asked: Which GI50 is reported for this compound? O=[N+]([O-])c1ccc(/C(Cl)=C/c2ccc(/C=C(\Cl)c3ccc([N+](=O)[O-])cc3[N+](=O)[O-])cc2)c([N+](=O)[O-])c1
Given back: > 100 µM (inactive)

Asked: State the recorded GI50 for this entry: CC1(C)N=C(c2ccccn2)C(c2ccccn2)=NC1(C)C
Given back: > 100 µM (inactive)

* * *

Test system: SN12C
Assay: NCI tumour cell line growth inhibition, 48 h
Calls of active or inactive are those of the source. No stated cut-off is given here; in the data, active = GI50 up to about 1.1 µM and inactive = higher.
measurement_kind: GI50

Asked: Give the reported GI50 for Cc1ccccc1NC(=O)c1ccc([N+](=O)[O-])cc1 (system: SN12C).
Given back: > 100 µM (inactive)

Asked: Request body: readout GI50, system SN12C, query N=C(N)Nc1nc2cc([N+](=O)[O-])ccc2[nH]1 . Return the value.
Given back: 86.1 µM (inactive)

Asked: Lab note: need GI50 with SN12C for entry CCn1c(=O)ccc2ccc(N(CCO)CCO)nc21 , please look it up.
Given back: > 100 µM (inactive)

Asked: Missing value: GI50, SN12C, entry O=Nc1c(-c2cccc([N+](=O)[O-])c2)nc2cnccn12 . Fill in?
Given back: 24.4 µM (inactive)

Asked: Observed GI50 on SN12C for CCCCCCCC(=O)OCC1OC(n2cc(F)c(=O)[nH]c2=O)C(NC(=O)OCc2ccccc2)C(O)C1O (configuration not stated) , please.
Given back: 32.9 µM (inactive)

Asked: # get_value(readout= GI50, system= SN12C) for Cc1nc2sccn2c1C(=O)NC(=O)Nc1ccc(Cl)cc1
Given back: > 100 µM (inactive)
